- Tgt: Transforming acidic coiled-coil-containing protein 3 (Homo sapiens) (UniProt Q9Y6A5)
- Test Method Notes: inhibition of ARNT PAS-B/TACC3 complex formation – biochemical, AlphaScreen, cherry-picked samples, confirmation (AID 651703);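 note: TACC3 partner is the GST-tagged E629A mutant dimer; hits lower the signal meaning they disrupt ARNT binding to TACC3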
- Condition Label: AlphaScreen His-ARNT PAS-B / GST-TACC3 binding, luminescence
Provide the reported AC50 of each item.

Consider the molecule `CCN(CC)c1ccc(/C=N/NC(=O)c2cnccn2)c(O)c1` and give its measured AC50.
11.3 µM

Consider the molecule `c1ccc(CNCCN2CCNCC2)nc1` and give its measured AC50.
6.79 µM

Consider the molecule `O=C(CSc1ccc(-c2ccccn2)nn1)NC1CCCCC1` and give its measured AC50.
2.56 µM

Consider the molecule `Cc1ccc(-n2c(-c3ccc(Br)cc3)c[n+]3c2CCc2ccc4cccnc4c2-3)cc1` and give its measured AC50.
1.45 µM

Consider the molecule `O=S(=O)(N[C@H]1CC[C@H](CCn2cc(-c3ccccn3)nn2)O[C@H]1CO)c1cccc(F)c1` and give its measured AC50.
21.8 µM

Consider the molecule `Cc1ccc(NC(=O)CN(C)C(=O)COc2cccc3cccnc23)cc1` and give its measured AC50.
41.7 µM

Consider the molecule `O=C(Nc1ccccc1C(F)(F)F)c1ncn[nH]1` and give its measured AC50.
13.1 µM

Consider the molecule `COc1ccc(NC(=O)CSc2c(C)nn(-c3nnc(C)c(=O)[nH]3)c2C)cc1` and give its measured AC50.
25.2 µM

Consider the molecule `O=C(Nc1nc(-c2ccccn2)cs1)c1ccco1` and give its measured AC50.
2.17 µM

Consider the molecule `O=C(CSc1n[nH]c(-c2ccccn2)n1)Nc1cccc(Cl)c1` and give its measured AC50.
4.78 µM

Consider the molecule `O=C(CN1C(=O)CCC1=O)Nc1nc(-c2ccccn2)cs1` and give its measured AC50.
4.39 µM

Consider the molecule `c1ccc(-c2nnc(-c3ccccn3)nc2NCC2CCOCC2)cc1` and give its measured AC50.
< 0.5 µM

Consider the molecule `COc1cc(CCNC2=CC(=O)c3ncccc3C2=O)ccc1O` and give its measured AC50.
34.8 µM

Consider the molecule `O=C(N/N=C(\c1ccccc1)c1cccnc1)c1cccc(F)c1` and give its measured AC50.
21.7 µM

Consider the molecule `Cc1nc2ccccc2c(=O)n1/N=C/c1ccc(O)c(O)c1O` and give its measured AC50.
25.9 µM

Consider the molecule `OCCN1CCN(C(=S)c2ccc(Cl)c(Cl)c2)CC1` and give its measured AC50.
33.2 µM

Consider the molecule N#CC1=C(N)Oc2c(ccc3cccnc23)C1c1ccncc1 (stereo unspecified) and give its measured AC50.
26.9 µM

Consider the molecule `CCCCCC/C=N/Nc1nnc(Cc2ccc(OC)c(OC)c2)c(=O)[nH]1` and give its measured AC50.
25.1 µM

Consider the molecule `c1cncc(-c2nc(NCCCn3ccnc3)c3ccccc3n2)c1` and give its measured AC50.
16.2 µM

Consider the molecule `CCOC(=O)/C(=N/Nc1ccccc1OC)N1CCCc2ccccc21` and give its measured AC50.
17.3 µM

Consider the molecule `Cc1ccc(S(=O)(=O)NC(=O)c2cc(C)n(CCCn3ccnc3)c2C)cc1` and give its measured AC50.
21.2 µM

Consider the molecule `O=C(Nc1nnc(-c2ccccc2Cl)o1)c1cccnc1` and give its measured AC50.
15.8 µM

Consider the molecule CC1CCCC(C)N1/N=C/c1ccc([N+](=O)[O-])cc1 (stereo unspecified) and give its measured AC50.
17 µM

Consider the molecule `CC(=O)[C@H]1[C@@H]2C(=O)N(c3cccc(Cl)c3)C(=O)[C@@H]2[C@H]2c3ccccc3C=CN21` and give its measured AC50.
6.22 µM

Consider the molecule `C(=N\Nc1ncnc2nc[nH]c12)/c1cccs1` and give its measured AC50.
57.8 µM

Consider the molecule `Oc1ccc(CN2CCC(Cc3ccccc3)CC2)c2cccnc12` and give its measured AC50.
2.48 µM

Consider the molecule `CC(=O)Nc1cccc(NC(=O)CSc2ccc(-c3ccccn3)nn2)c1` and give its measured AC50.
2.78 µM

Consider the molecule `COc1cc(/C=N/N(CCO)C2=NS(=O)(=O)c3ccccc32)cc(OC)c1OC` and give its measured AC50.
15.6 µM

Consider the molecule CC(Nc1nc(-c2ccccn2)nnc1-c1ccccc1)c1ccccc1 (stereo unspecified) and give its measured AC50.
0.564 µM

Consider the molecule `O=C(Nc1ccc(N2CCN(C(=O)c3ccccc3F)CC2)cc1)c1ncn[nH]1` and give its measured AC50.
17.8 µM

Consider the molecule `COc1ccc2nc(-c3ccccn3)[nH]c2c1` and give its measured AC50.
29 µM

Consider the molecule `C[C@@H]1CN([C@H](C)CO)S(=O)(=O)c2ccc(C3=CCCC3)cc2O[C@H]1CN(C)Cc1ccccn1` and give its measured AC50.
70 µM

Consider the molecule `COC(=O)c1ccc(CSc2ccc3nnc(-c4ccccn4)n3n2)o1` and give its measured AC50.
17.4 µM

Consider the molecule `COc1cc(NC(=O)CSc2ccc(-c3ccccn3)nn2)cc(OC)c1` and give its measured AC50.
1.78 µM

Consider the molecule `N#Cc1ccc(C(=O)Nc2nnc(-c3ccco3)o2)cc1` and give its measured AC50.
27.7 µM

Consider the molecule `O=c1cc(N/N=C/c2ccccc2)[nH]c(=O)[nH]1` and give its measured AC50.
31.8 µM

Consider the molecule Oc1ccccc1C(Nc1nccs1)c1ccc2cccnc2c1O (stereo unspecified) and give its measured AC50.
4.85 µM

Consider the molecule `N[C@@H]1CC[C@H](CCn2cc(-c3ccccn3)nn2)O[C@H]1CO` and give its measured AC50.
1.13 µM

Consider the molecule `CCNC(=O)C(=O)N/N=C/c1cc([N+](=O)[O-])ccc1O` and give its measured AC50.
2.62 µM

Consider the molecule `O=C(N[C@@H]1CC[C@H](CCn2cc(-c3ccccn3)nn2)O[C@H]1CO)c1cccnc1` and give its measured AC50.
12.2 µM

Consider the molecule `Cc1nc2ccccc2n1CC(=O)c1ccc(O)c(O)c1` and give its measured AC50.
49.8 µM

Consider the molecule `c1ccc(-c2cnnc(-c3ccccn3)n2)cc1` and give its measured AC50.
2.57 µM

Consider the molecule `O=C(Nc1nnc(-c2cccs2)o1)c1ccco1` and give its measured AC50.
48.4 µM

Consider the molecule Cc1nnc(NC(=O)c2ccc(S(=O)(=O)N3CC(C)OC(C)C3)cc2)o1 (stereo unspecified) and give its measured AC50.
44.6 µM

Consider the molecule `Oc1cccc(/C=N/Nc2ccc(Cl)nn2)c1O` and give its measured AC50.
1.5 µM

Consider the molecule `COc1cc(-c2nnc(NC(=O)c3ccco3)o2)cc(OC)c1OC` and give its measured AC50.
66.9 µM
